species on record: Homo sapiens; assay: Selectivity for human dopamine D3 receptor over human 5HT2A receptor
Returns 1 if the recorded Ratio Ki is greater than or equal to 60, and 0 otherwise.

Recorded results for 3 molecules are shown here.
{"columns": ["molecule", "answer.label"],
 "data": [
  ["O=C(NC/C=C/CN1CCN(c2cccc(Cl)c2Cl)CC1)c1ccc(-c2ccccn2)cc1", 1],
  ["O=C(NC/C=C/CN1CCN(c2cccc(Cl)c2Cl)CC1)c1ccc2c(c1)Cc1ccccc1-2", 1],
  ["O=C(NCCC(O)CN1CCN(c2cccc(Cl)c2Cl)CC1)c1ccc(-c2ccccn2)cc1 (configuration not stated)", 0]
]}

Task item: Is it the case that COc1ccccc1N1CCN(CC(O)CCNC(=O)c2ccc(-c3ccccn3)cc2)CC1 (configuration not stated) has Ratio Ki reaching or exceeding 60?
Reply: 1

Task item: Form field: Ratio Ki at least 60? Entry: O=C(NC/C=C/C[N+]1([O-])CCN(c2cccc(Cl)c2Cl)CC1)c1ccc(-c2ccccn2)cc1
Reply: 0

Task item: Textbook exercise: given the entry O=C(NCCCCN1CCN(c2cccc(Cl)c2Cl)CC1)c1ccc(-c2ccccn2)cc1 , state whether its Ratio Ki is greater than or equal to 60.
Reply: 0

Task item: // inclusive: Ratio Ki at least 60? input: Cc1cccc(-c2ccc(C(=O)NC/C=C/CN3CCN(c4cccc(Cl)c4Cl)CC3)cc2)n1
Reply: 1
